Record form. Attribute: Kd. Fill in for each entry.
Target: HIV RT (HIV, UniProt P04585;P04585 588-1147;588-1027)
Assay: filter binding; no Mg2+; Primer extension: 50 mM Tris-HCl pH 8.0, 80 mM KCl, 6 mM MgCl2, 1 mM DTT, 0.1 mg/ml BSA, room temperature, 1 nM duplex; filter binding: Tris-HCl pH 8.0, 80 mM KCl, 1 mM DTT, without Mg2+ (wt) or 6 mM Mg2+ (E478Q), room temperature, 5 nM hybrid (Table 1 units nM inferred)
Settings: protein: commercial; copies: 1;1; label: 5'-32P primer; 5' overhang 4 nt (template)
Write the number in nM without appending the unit.

q: Name the reported Kd value associated with the binder Control-1 (DNA:RNA, strand 1 RNA, strand 2 DNA) ?: AAAAGAAAAGCGCGC DNA: CAGTGCGCGCTTTTCTTTT
a: 1760

q: Name the reported Kd value associated with the binder Control-2 (DNA:RNA, strand 1 RNA, strand 2 DNA) RNA: AAUUCGAGCUCGGUA DNA: CAGTTACCGAGCTCGAATT
a: 2610
